- assay info: amyloid nucleation score (Sup35N fusion, yeast selection) (log enrichment); library NNK1; higher = more nucleation; inactive = no reads after selection;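 also: zero at mode of non-aggregating sequences after 7 days selection at 30°C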
Would you kindly list amyloid nucleation score for each of these substances?
Just the number, please, no unit attached.

amyloid nucleation score reading for `FILSEFSNRF` : 0.104

amyloid nucleation score reading for `LYHRSSLGMVSVVGDSMSDT` : 0.596

amyloid nucleation score reading for `SLAYCSFHMLKIPLRSGPTW` : 0.01

amyloid nucleation score reading for `FAKVESLLWAGICTGRDEVM` : -0.318

amyloid nucleation score reading for `FLPWVLFFSQ` : 0.816

amyloid nucleation score reading for `VVNGTMFINPCYVQGRCKEM` : 4.63

amyloid nucleation score reading for `LNHSYMICLFLCNR` : 6.95

amyloid nucleation score reading for `SNKIGVCSKLMISFPCIEYN` : -0.065

amyloid nucleation score reading for `SSIVIRTCKWYGTVCIWELL` : -0.339

amyloid nucleation score reading for `GMYLYIPLSITFTVEHTVVA` : 5.02

amyloid nucleation score reading for `CFLVGSWTPI` : 0.215

amyloid nucleation score reading for `NRHRRVPFRISTALLPVKLQ` : 0.632

amyloid nucleation score reading for `MLVAFAYFFGSHVRHWGFVW` : 0.224

amyloid nucleation score reading for `AMGRGLNWCPIGFVVSDMQR` : 1.39

amyloid nucleation score reading for `RDMRLLAFRLPIRRFTRGST` : -0.097

amyloid nucleation score reading for `RNIATYYFRSN` : 0.612

amyloid nucleation score reading for `FDECGAGLLPTG` : -0.198

amyloid nucleation score reading for `NYCGLGSMYL` : 1.1

amyloid nucleation score reading for `CLNTMWRKPVEAREM` : 0.189

amyloid nucleation score reading for `QIVCGSMWMLDKI` : -0.297

amyloid nucleation score reading for `LGAQGLFVYSLLCQT` : -0.126

amyloid nucleation score reading for `IKGQGVKVSVVLTAGTCRLW` : 1.17

amyloid nucleation score reading for `CYCLNAGVSMADHSVPPRVF` : 0.912

amyloid nucleation score reading for `KPLEDFVDYKMMLMIHEEVC` : 0.763

amyloid nucleation score reading for `EQVSKMGNTCMSVDRVRWQN` : -0.411

amyloid nucleation score reading for `YFYTSHFSLLTSTQFIYRLG` : 0.392

amyloid nucleation score reading for `ATLMYWASSWSCWFTKGTAV` : -0.413

amyloid nucleation score reading for `DLRFCNASYVLWISDFAHAV` : -0.08

amyloid nucleation score reading for `HSHRYNILQASWKA` : 0.17

amyloid nucleation score reading for `ETFPYMRMYARALSRT` : 0.369

amyloid nucleation score reading for `MQRLLYACVHYRESAQVSTL` : 1.93

amyloid nucleation score reading for `MQTVNFVFTRLIFISDFTIQ` : 0.688

amyloid nucleation score reading for `CLAGGYSGNAEGMIIETRAK` : -0.171

amyloid nucleation score reading for `HICTTFCTSMFSRTSQWSGG` : 0.673

amyloid nucleation score reading for `AILRHRSVNSGGELCGSKFP` : 0.293

amyloid nucleation score reading for `PLIITTMFGASVRESFHVVL` : 1.21

amyloid nucleation score reading for `FNFCHE` : -0.392

amyloid nucleation score reading for `GNWGNGSGTCLCTSSFYCRL` : 2.78

amyloid nucleation score reading for `QSISYR` : -0.956

amyloid nucleation score reading for `IMTESCCG` : 0.743

amyloid nucleation score reading for `SFYYWHPIALVWYGGARYKC` : 1.35

amyloid nucleation score reading for `ARSTSALQL` : -1.97

amyloid nucleation score reading for `GLNCSGNGEVIWQP` : -0.403

amyloid nucleation score reading for `TAIWTSIIDL` : 0.96

amyloid nucleation score reading for `DPAHLSGWLLCSP` : 0.624

amyloid nucleation score reading for `GACLWGT` : 0.338

amyloid nucleation score reading for `LAELWECDKSLKSPGAYWVL` : 1.49

amyloid nucleation score reading for `NGLCLDDIVRLFVIITSVGP` : 0.821

amyloid nucleation score reading for `SPCLLF` : -0.637

amyloid nucleation score reading for `YKHWLYKLSCLEARSEYCGF` : 0.444

amyloid nucleation score reading for `FCNVQIFFAVITHPFYSTLL` : 1.48

amyloid nucleation score reading for `FDGKLW` : -0.53

amyloid nucleation score reading for `HQIFIWVVGLGTFETPRNHK` : 5.96

amyloid nucleation score reading for `LSYEDSSFNFLNSFYIKSWW` : -0.161

amyloid nucleation score reading for `GFIQWLMLWRVFFSM` : -0.681

amyloid nucleation score reading for `WRMFGGRSEQSFIVPCRLLG` : 0.535

amyloid nucleation score reading for `KHSNLYIFPGVYFFQITSLY` : 3.96

amyloid nucleation score reading for `GCRGSFVEGWIAHMADGSFI` : -0.577

amyloid nucleation score reading for `TGLVLVGMSVSCVRYRCSND` : 0.009

amyloid nucleation score reading for `TCRTEKTNTELMG` : 1.78

amyloid nucleation score reading for `KELFLMPDGEPFMG` : 0.079

amyloid nucleation score reading for `LFRDACLGMR` : -0.494

amyloid nucleation score reading for `FGLIATTETRAVSKMNVFDN` : 1.56

amyloid nucleation score reading for `RKPVVGSFIFTTFCKSYVDV` : 2.9

amyloid nucleation score reading for `FNYFYVLYS` : 5.35

amyloid nucleation score reading for `VAFWFVLGWKGSLYYKGLAD` : 0.334

amyloid nucleation score reading for `PWQRSSCLGTLVLVTNYDRY` : 0.058

amyloid nucleation score reading for `CSRVVWLVIRLLEMWIEPRA` : 0.815

amyloid nucleation score reading for `RNNCEMCLGFLS` : 0.827
